# Read-out: Macrophage colony-stimulating factor (MCSF), CSF1 (gene 1435)
# RUN_DESCRIPTION: BSK_hDFCGF_MCSF: BioMAP Diversity Plus: hDFCGF Assay for Macrophage colony-stimulating factor (MCSF) Biomarker Activity (AID 2283060)
# EXPERIMENTAL_PARAMETERS: primary human foreskin fibroblasts; actives raise or lower the signal
Calls of active or inactive are those of the source. Rule for the calls: active = hit-call score of the fitted dose curve at least 0.9, where 1 is the maximum; inactive = score below 0.9.

{"columns": ["MOL", "outcome"],
 "data": [
  ["COC(=O)c1ccccc1CS(=O)(=O)NC(=O)Nc1nc(OC)cc(OC)n1", "inactive"],
  ["CNC(=O)/C=C(\\C)OP(=O)(OC)OC", "inactive"],
  ["COP(=O)(OC)OC=C(Cl)Cl", "inactive"]
]}
